target: USP38 (UniProt Q8NB14); test: log2 ratio of Biotin-Ahx-Ub-VS probe labelling (fragment/DMSO); higher = less target engagement (more negative = stronger competition), active = hit call of the paper (q ≤ 0.05, log2 ratio ≤ -1); settings: compound concentration: 200 uM; treatment time: 3 h
Sequence (Q8NB14 whole entry, the tested form may be a part): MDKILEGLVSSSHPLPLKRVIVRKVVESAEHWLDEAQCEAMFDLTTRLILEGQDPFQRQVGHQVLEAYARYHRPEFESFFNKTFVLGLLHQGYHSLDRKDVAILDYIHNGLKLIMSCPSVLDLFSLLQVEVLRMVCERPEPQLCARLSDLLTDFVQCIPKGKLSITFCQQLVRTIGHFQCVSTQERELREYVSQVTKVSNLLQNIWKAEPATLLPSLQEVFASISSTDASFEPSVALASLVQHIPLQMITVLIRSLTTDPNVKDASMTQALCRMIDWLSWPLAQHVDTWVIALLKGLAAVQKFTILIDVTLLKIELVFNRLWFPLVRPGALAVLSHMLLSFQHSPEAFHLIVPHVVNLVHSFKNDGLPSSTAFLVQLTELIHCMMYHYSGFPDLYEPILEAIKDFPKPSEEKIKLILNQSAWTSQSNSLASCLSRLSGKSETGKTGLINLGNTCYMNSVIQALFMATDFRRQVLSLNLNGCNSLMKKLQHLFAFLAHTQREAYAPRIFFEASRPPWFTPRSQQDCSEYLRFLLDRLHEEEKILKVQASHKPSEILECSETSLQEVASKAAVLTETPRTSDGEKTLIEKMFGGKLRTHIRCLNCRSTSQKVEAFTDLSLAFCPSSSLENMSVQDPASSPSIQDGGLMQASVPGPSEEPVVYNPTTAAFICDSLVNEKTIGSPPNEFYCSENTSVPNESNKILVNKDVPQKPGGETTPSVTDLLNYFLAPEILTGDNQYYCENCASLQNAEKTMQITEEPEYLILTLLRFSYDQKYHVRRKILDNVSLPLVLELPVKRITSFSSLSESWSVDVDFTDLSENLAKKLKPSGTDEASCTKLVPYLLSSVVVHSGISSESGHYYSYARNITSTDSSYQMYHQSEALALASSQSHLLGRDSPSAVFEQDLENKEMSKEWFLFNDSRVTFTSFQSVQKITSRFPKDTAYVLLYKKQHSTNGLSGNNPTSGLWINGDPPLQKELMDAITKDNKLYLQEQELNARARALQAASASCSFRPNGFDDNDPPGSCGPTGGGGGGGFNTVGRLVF
recorded.metric: log2 ratio of Biotin-Ahx-Ub-VS probe labelling

Cl.O=C(CCl)NCCN1CCc2ccccc21	-0.723
Cc1c(C#N)c(NC(=O)CCl)n(Cc2ccco2)c1C	-0.297
N#Cc1ccccc1N1CCN(C(=O)CCl)CC1	-0.312
CC(O)CC1CCN(C(=O)CCl)CC1 (stereo not drawn)	-0.143
Cc1ccc(C(=O)NCCNC(=O)CCl)cc1	-0.00607
Cl.O=C(CCl)NCCc1ncc(F)cc1F	-0.203
CC(=O)Nc1ccc(NC(=O)CCl)cc1	0.0936
Cc1n[nH]c(=O)c2c(NC(=O)CCl)oc(C)c12	0.0131
O=C(CCl)NCc1noc(C2CC2)n1	-0.0158
Cl.O=C(CCl)N1CCN(Cc2ccccc2)CC1	-0.0649
Cc1c(NC(=O)CCl)c(=O)n(-c2ccccc2)n1C	-0.177
O=C(CCl)N(C1CCCC1)C1CCS(=O)(=O)C1 (stereo not drawn)	-0.0626
O=C(CCl)NC1CCN(C(=O)C2CCCCC2)CC1	0.166
